From: patent US20040192910A1

Test system: Digitaria
Method Notes: Pre-emergence herbicidal action
Format: in vivo
Design: key: 1=total damage; 9=no action
Protocol Conditions: 250 g a.i./ha (500 litres water/ha), sprayed immediately after sowing, evaluated after 3 weeks; scale of nine ratings, 1 to 4 = good to very good action
Assign Pre-emergence action, rating, Digitaria to each entry below.

Query: Dear colleague, I am looking for the recorded Pre-emergence action, rating, Digitaria of the following compound: `Cc1nc(C(F)(F)F)ccc1C(=O)C1=C(Cl)C(C)(C)C(=O)C(C)(C)C1=NS(=O)(=O)c1cccnc1F`
Result: 1

Query: Dear colleague, I am looking for the recorded Pre-emergence action, rating, Digitaria of the following compound: `CSC1=C(C(=O)c2ccc(C(F)(F)F)nc2C)C(=NS(=O)(=O)c2cccnc2F)C(C)(C)C(=O)C1(C)C`
Result: 1

Query: Dear colleague, I am looking for the recorded Pre-emergence action, rating, Digitaria of the following compound: `C=CS(=O)(=O)N=C1C(C(=O)c2ccc(C(F)(F)F)nc2C)=C(Cl)C(C)(C)C(=O)C1(C)C`
Result: 3

Query: Dear colleague, I am looking for the recorded Pre-emergence action, rating, Digitaria of the following compound: `Cc1nc(C(F)(F)F)ccc1C(=O)C1=C(Cl)C(C)(C)C(=O)C(C)(C)C1=NS(=O)(=O)c1ccccc1`
Result: 1

Query: Dear colleague, I am looking for the recorded Pre-emergence action, rating, Digitaria of the following compound: `CSC1=C(C(=O)c2ccc(C(F)(F)F)nc2C)C(=NS(=O)(=O)c2ccccc2)C(C)(C)C(=O)C1(C)C`
Result: 1
